measurementTarget: full-length human Cal1 (Homo sapiens (Human))
Sequence (P07384 whole entry): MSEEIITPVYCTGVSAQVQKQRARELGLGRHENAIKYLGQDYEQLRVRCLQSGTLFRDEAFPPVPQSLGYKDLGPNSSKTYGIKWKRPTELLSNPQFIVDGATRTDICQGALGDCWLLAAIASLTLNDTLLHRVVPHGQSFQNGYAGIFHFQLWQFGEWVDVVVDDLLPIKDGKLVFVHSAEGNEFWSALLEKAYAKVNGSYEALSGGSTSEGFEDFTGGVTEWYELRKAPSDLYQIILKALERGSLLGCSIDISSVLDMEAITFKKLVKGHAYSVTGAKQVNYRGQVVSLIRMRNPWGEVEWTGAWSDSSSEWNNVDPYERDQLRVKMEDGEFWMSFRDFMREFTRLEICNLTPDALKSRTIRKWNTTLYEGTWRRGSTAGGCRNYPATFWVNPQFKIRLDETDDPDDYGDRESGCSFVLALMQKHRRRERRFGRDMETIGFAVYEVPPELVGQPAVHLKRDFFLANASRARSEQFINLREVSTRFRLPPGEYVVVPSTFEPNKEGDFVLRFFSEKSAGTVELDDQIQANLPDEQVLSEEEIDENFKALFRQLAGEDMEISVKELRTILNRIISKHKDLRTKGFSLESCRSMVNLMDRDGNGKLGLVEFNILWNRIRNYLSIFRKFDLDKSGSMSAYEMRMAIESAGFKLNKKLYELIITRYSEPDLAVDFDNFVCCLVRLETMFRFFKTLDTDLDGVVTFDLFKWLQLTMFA
Sequence (P04632 whole entry partner): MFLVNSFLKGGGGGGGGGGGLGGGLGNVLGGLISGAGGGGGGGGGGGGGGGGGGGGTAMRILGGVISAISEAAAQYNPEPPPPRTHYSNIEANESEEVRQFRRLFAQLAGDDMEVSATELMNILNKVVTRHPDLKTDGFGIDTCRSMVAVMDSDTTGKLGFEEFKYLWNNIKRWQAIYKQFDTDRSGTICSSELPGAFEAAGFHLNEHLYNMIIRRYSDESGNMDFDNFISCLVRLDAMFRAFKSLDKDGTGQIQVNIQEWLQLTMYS
testDescription: Calpain inhibition FRET assay
Format: biochemical
assayContext: Table 3, 20 min incubation, FRET substrate, >1: inhibition not quantifiable at 1 μM
recordedEndpoint: IC50

Example results:
| compound | measurementTarget | measuredResult |
| --- | --- | --- |
| O=C(NCc1cn(-c2cc(C(F)(F)F)cc(C(F)(F)F)c2)nn1)[C@H](Cc1cscn1)NC(=O)[C@H]1O[C@@H]1C(=O)O | full-length human Cal1 (Homo sapiens (Human)) | > 1000 nM |
| O=C(Nc1ccccc1)[C@H](Cc1cscn1)NC(=O)[C@H]1O[C@@H]1C(=O)O | full-length human Cal1 (Homo sapiens (Human)) | 2500 nM |
| O=C(NCc1cn(-c2ccc(S(=O)(=O)N3CCCCC3)cc2)nn1)[C@H](Cc1cscn1)NC(=O)[C@H]1O[C@@H]1C(=O)O | full-length human Cal1 (Homo sapiens (Human)) | 1500 nM |

// IC50 lookup, compound = "O=C(NCc1cn(-c2c(F)cccc2F)nn1)[C@H](Cc1cscn1)NC(=O)[C@H]1O[C@@H]1C(=O)O" , result: > 1000 nM

// IC50 lookup, compound = "Cc1cc(C)c(-n2cc(CNC(=O)[C@H](Cc3cscn3)NC(=O)[C@H]3O[C@@H]3C(=O)O)nn2)c(C)c1" , result: > 1000 nM

// IC50 lookup, compound = O=C(Nc1nc2ccc(F)cc2s1)[C@H](Cc1c[nH]cn1)NC(=O)[C@@H]1O[C@H]1C(=O)O [Compound 31b] , result: > 1000 nM
